assay: Rodent pharmacokinetic experiment in mice
Type: in vivo, DBA-1J mice
stated.conditions: female, DBA-1J, mouse, plasma, oral gavage, read-out: Tmax after oral dosing

compound	Tmax
O=c1nc(NO)ccn1[C@@H]1O[C@H](CO)[C@H](O)C1O (stereo partly shown)	15 to 30 min

----------
assay: in vitro
CC50 strictly under 200 µM means 1; at 200 µM or over means 0.

compound	discrete.label
CC(C)(C)C(=O)OCOP(=O)(OCOC(=O)C(C)(C)C)OC[C@H]1O[C@@H](n2ccc(=O)[nH]c2=O)[C@](C)(O)C1O (some centres unmarked)	1
CCCCCCCCCCCCCCCCOCCCOP(=O)(O)OC[C@H]1O[C@@H](n2ccc(NO)nc2=O)[C@@H](O)C1O (some centres unmarked)	1
CCCCCCCNC(=O)ONc1ccn([C@@H]2O[C@H](CO)[C@H](O)C2O)c(=O)n1 (some centres unmarked)	1
O=c1nc(NO)ccn1[C@@H]1O[C@H](COP2(=O)OCc3ccccc3O2)C(O)[C@@H]1O (some centres unmarked)	0
CCCCCCCCC(=O)OC[C@H]1O[C@@H](n2ccc(NO)nc2=O)C(O)[C@H]1O (some centres unmarked)	1
CC(C)(C)C(=O)OCOP(=O)(OCOC(=O)C(C)(C)C)OC[C@H]1O[C@@H](n2ccc(=O)[nH]c2=O)[C@](C)(F)C1O (some centres unmarked)	0
[2H]C([2H])(O)[C@H]1O[C@@H](n2ccc(NO)nc2=O)[C@@H](O)C1O (some centres unmarked)	0
NNc1ccn([C@@H]2O[C@H](CO)C(O)[C@@H]2O)c(=O)n1 (some centres unmarked)	0
O=c1nc(NO)cc[nH]1	0
C#C[C@@]1(O)C(O)[C@@H](COP(=O)(OCOC(=O)C(C)(C)C)OCOC(=O)C(C)(C)C)O[C@H]1n1ccc(=O)[nH]c1=O (some centres unmarked)	0
CNC(=O)ONc1ccn([C@@H]2O[C@H](CO)C(O)[C@@H]2O)c(=O)n1 (some centres unmarked)	0
CCCCCCCCCCCCCCCCNC(=O)ONc1ccn([C@@H]2O[C@H](CO)[C@H](O)C2O)c(=O)n1 (some centres unmarked)	0
CCOP(=O)(OCC)OC[C@H]1O[C@@H](n2ccc(NO)nc2=O)[C@@H](O)C1O (some centres unmarked)	0
CCCCCCCCCCCCCCCCCCNC(=O)ONc1ccn([C@@H]2O[C@H](CO)[C@H](O)C2O)c(=O)n1 (some centres unmarked)	1
CC(C)(C)C(=O)OCOP(=O)(OCOC(=O)C(C)(C)C)OC[C@@]1(N=[N+]=[N-])O[C@@H](n2ccc(=O)[nH]c2=O)[C@@H](O)C1O (some centres unmarked)	0
O=c1ccn([C@@H]2O[C@H](CO)C(O)[C@@]23CC3(F)F)c(=O)[nH]1 (some centres unmarked)	0
CCCCCCCOC(=O)OC[C@H]1O[C@@H](n2ccc(NO)nc2=O)C(O)[C@H]1O (some centres unmarked)	1

----------
This section presents compounds with their documented CC50 values.
assay: in vitro
stated.conditions: African green monkey
property.measured: CC50 (µg/mL)

compound	property.measured	value.operator	measured.result
O=c1nc(NO)ccn1[C@@H]1O[C@H](CO)C(O)C1O (some centres unmarked) [drawing 68]	CC50	=	36
CCCCCCCCC(=O)ONc1ccn([C@@H]2O[C@H](CO)C(O)C2O)c(=O)n1 (some centres unmarked)	CC50	=	36
CCCCCCCOC(=O)ONc1ccn([C@@H]2O[C@H](CO)C(O)C2O)c(=O)n1 (some centres unmarked) [drawing 70]	CC50	>	100
CONc1ccn([C@@H]2O[C@H](CO)C(O)C2O)c(=O)n1 (some centres unmarked)	CC50	>	100
CC1(O)C(O)[C@@H](CO)O[C@H]1n1ccc(NO)nc1=O (some centres unmarked)	CC50	>	100

----------
assay: Cytotoxicity (CC50) in HG23, norovirus screening
Format: cell-based
stated.conditions: human, HG23 cells; HG23, norovirus screen
property.measured: CC50

molecule	measured.result
CC1(O)C(O)[C@@H](CO)O[C@H]1n1ccc(NO)nc1=O (some centres unmarked)	> 100 µg/mL
O=c1nc(NO)ccn1[C@@H]1O[C@H](CO)C(O)C1O (some centres unmarked) [drawing 68]	> 100 µg/mL

----------
List of Cell Viability 50 uM values.
Test system: HeLa
stated.conditions: human
property.measured: Cell Viability 50 uM

compound	measured.result
CC(C)OC(=O)[C@H](C)NP(=O)(OC[C@H]1O[C@@H](n2ccc(NO)nc2=O)C(O)C1O)Oc1ccccc1 (some centres unmarked) [drawing 80]	134% ± 16% (n = 4)
O=c1nc(NO)c(F)cn1[C@@H]1O[C@H](CO)C(O)C1O (some centres unmarked) [drawing 81]	36% ± 2% (n = 4)
CCCCCCCOC(=O)ONc1ccn([C@@H]2O[C@H](CO)C(O)C2O)c(=O)n1 (some centres unmarked) [drawing 79]	85% ± 8% (n = 4)
CCCCCCCNC(=O)ONc1ccn([C@@H]2O[C@H](CO)C(O)C2O)c(=O)n1 (some centres unmarked) [drawing 82]	126% ± 7% (n = 4)
O=c1nc(NO)ccn1[C@@H]1O[C@H](CO)C(O)C1O (some centres unmarked) [drawing 78]	61% ± 8% (n = 4)

----------
Tested on: Astrocytes
property.measured: Cell Viability 10 uM

compound	measured.result
CCCCCCCOC(=O)ONc1ccn([C@@H]2O[C@H](CO)C(O)C2O)c(=O)n1 (stereo partly shown) [drawing 84]	99% ± 9% (n = 3)
CCCCCCCNC(=O)ONc1ccn([C@@H]2O[C@H](CO)C(O)C2O)c(=O)n1 (stereo partly shown) [drawing 87]	98% ± 12% (n = 3)
O=c1nc(NO)ccn1[C@@H]1O[C@H](CO)C(O)C1O (stereo partly shown) [drawing 83]	98% ± 12% (n = 3)
CC(C)OC(=O)[C@H](C)NP(=O)(OC[C@H]1O[C@@H](n2ccc(NO)nc2=O)C(O)C1O)Oc1ccccc1 (stereo partly shown) [drawing 85]	102% ± 16% (n = 3)
